The measurements presented in this section are drawn from PubChem BioAssay (NCI).

system: ACHN renal; assay: NCI tumour cell line growth inhibition, 48 h

# compound, subject-of-test, TGI
data = [
    ("O=C1COCCN1c1ccc(NCc2cn(Cc3ccc(F)cc3)c3ccccc23)cc1", "ACHN renal", "31.4 µM"),
    ("CCn1cc(C(=O)O)c(=O)c2cc(F)c(N3CCNCC3)nc21", "ACHN renal", "> 100 µM"),
    ("Fc1cccc(C2SCc3nc4ccccc4n32)c1 (stereo not drawn)", "ACHN renal", "> 100 µM"),
    ("CC(=O)SC(C[N+](=O)[O-])c1ccccc1 (stereo not drawn)", "ACHN renal", "8.94 µM"),
    ("Nc1nc(-c2ccccc2Cl)cc(-c2ccc(Cl)cc2Cl)n1", "ACHN renal", "> 100 µM"),
    ("O=P1(NCCCl)OCCC(OO)N1CCCl (stereo not drawn)", "ACHN renal", "33 µM"),
    ("O=C1/C=C/[C@@H](O)[C@@H]2C[C@@H](O)C[C@H]2/C=C/CCCCO1", "ACHN renal", "> 23.6 µM"),
    ("COc1ccc([C@H]2C=C(c3cc(F)c(Cl)cc3Cl)N=c3s/c(=C\\c4ccc(-c5ccc(Cl)cc5Cl)o4)c(=O)n32)cc1", "ACHN renal", "> 100 µM"),
    ("c1ccc(Oc2cnc3ccccc3n2)cc1", "ACHN renal", "> 100 µM"),
    ("FC(F)(F)c1ccc(N=NN2CCCC2)cc1", "ACHN renal", "> 100 µM"),
    ("COc1ccc(/C=C\\c2cc(OC)c(OC(C)=O)c(OC)c2)cc1", "ACHN renal", "> 100 µM"),
    ("Cc1nc2c(ccc3[nH]c4ccccc4c32)s1", "ACHN renal", "> 100 µM"),
    ("NCCCCNCCCNC(=O)c1csc(-c2nc(CCN)sc2Cl)n1", "ACHN renal", "> 100 µM"),
]
